# targetDesc: T1, human PVRIG-his (AcroBiosystems, Cat NO. PVG-H52H4) (human, UniProt Q6DKI7 41-171, limits assumed)
# T1 construct: also called human PVRIG protein
# T1 sequence (looked up): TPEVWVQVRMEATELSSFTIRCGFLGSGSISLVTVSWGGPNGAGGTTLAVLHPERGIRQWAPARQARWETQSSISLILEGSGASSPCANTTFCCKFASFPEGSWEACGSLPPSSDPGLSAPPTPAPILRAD
# testDetails: SPR (BIAcore), antibody captured on Protein A chip, human PVRIG-His analyte
Quick list: kon per entry.
readoutKind: kon (M⁻¹ s⁻¹)

binder	readoutKind	number
PVRIG-A60 (Fc fusion, heavy chain antibody VHH-hinge-CH2-CH3, human IgG1 constant part; not shown: human IgG1 hinge-CH2-CH3) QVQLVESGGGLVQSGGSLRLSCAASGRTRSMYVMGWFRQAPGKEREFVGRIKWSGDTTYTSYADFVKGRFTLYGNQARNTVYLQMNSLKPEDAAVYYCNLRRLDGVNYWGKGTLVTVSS	kon	141000
PVRIG-A50 (Fc fusion, heavy chain antibody VHH-hinge-CH2-CH3, human IgG1 constant part; also called PVRIG-50; not shown: human IgG1 hinge-CH2-CH3) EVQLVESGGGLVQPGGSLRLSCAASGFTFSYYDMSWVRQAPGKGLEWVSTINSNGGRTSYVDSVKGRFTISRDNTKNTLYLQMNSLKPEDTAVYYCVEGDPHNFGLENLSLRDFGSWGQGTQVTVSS	kon	507000
PVRIG-A11 (Fc fusion, heavy chain antibody VHH-hinge-CH2-CH3, human IgG1 constant part; not shown: human IgG1 hinge-CH2-CH3) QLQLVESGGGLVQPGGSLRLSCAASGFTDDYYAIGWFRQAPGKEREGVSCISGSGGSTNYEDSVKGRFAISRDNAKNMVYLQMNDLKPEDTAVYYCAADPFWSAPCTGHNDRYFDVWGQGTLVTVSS	kon	3.18e+07
PVRIG-A113 (Fc fusion, heavy chain antibody VHH-hinge-CH2-CH3, human IgG1 constant part; not shown: human IgG1 hinge-CH2-CH3) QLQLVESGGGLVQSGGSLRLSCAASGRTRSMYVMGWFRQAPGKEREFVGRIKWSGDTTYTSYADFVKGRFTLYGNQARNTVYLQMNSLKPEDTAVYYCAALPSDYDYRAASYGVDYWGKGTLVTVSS	kon	442000

Data provenance: patent US20240343803A1
